Origin of measurements: patent US7763615B2

# System: AML-12, normal mouse liver cells
# reported.conditions: 24 h
Measured Liver of individual entries
Give the value as a plain number.

Some molecules with recorded Liver:
[
  {
    "molecule": "COc1c(C)cc2c(c1O)[C@@H]1C3[C@@H]4SC[C@]5(C(=O)COC[C@@H](c6c7c(c(C)c(OC(C)=O)c64)OCO7)N3[C@@H](O)[C@H](C2)N1C)c1[nH]c2ccc(O)cc2c1CCN5C (some centres unmarked) [Compound 33]",
    "Liver": "1.05E−08"
  },
  {
    "molecule": "COc1c(C)cc2c(c1O)[C@@H]1C3[C@@H]4SC[C@]5(NCCc6c5[nH]c5ccc(OCc7ccccc7)cc65)C(=O)COC[C@@H](c5c6c(c(C)c(OC(C)=O)c54)OCO6)N3[C@@H](O)[C@H](C2)N1C (some centres unmarked) [Compound 29]",
    "Liver": "1.59E−08"
  },
  {
    "molecule": "COc1c(C)cc2c(c1O)[C@@H]1C3[C@@H]4SC[C@]5(C(=O)COC[C@@H](c6c7c(c(C)c(OC(C)=O)c64)OCO7)N3[C@@H](O)[C@H](C2)N1C)c1[nH]c2ccccc2c1CCN5C (some centres unmarked) [Compound 40]",
    "Liver": "3.86E−08"
  },
  {
    "molecule": "COc1c(C)cc2c(c1O)[C@@H]1C3[C@@H]4SC[C@]5(NCCc6c5[nH]c5ccc(F)cc65)C(=O)COC[C@@H](c5c6c(c(C)c(OC(C)=O)c54)OCO6)N3[C@@H](O)[C@H](C2)N1C (some centres unmarked) [Compound 35]",
    "Liver": "4.88E−08"
  }
]

API: the following record is the query input.
Task: Please state recorded Liver (tested on AML-12, normal mouse liver cells) of COc1ccc2c3c([nH]c2c1)[C@@]1(CS[C@@H]2c4c(OC(C)=O)c(C)c5c(c4[C@H](COCC1=O)N1C2[C@H]2c4c(cc(C)c(OC)c4O)C[C@@H]([C@@H]1O)N2C)OCO5)NCC3 (some centres unmarked) [Compound 34]
Result: 2.55E−06
